# Lookup of reported pEC50 keyed by entry
EXPERIMENTAL SYSTEM: human M4 muscarinic acetylcholine receptor (Homo sapiens)
Sequence (P08173 whole entry): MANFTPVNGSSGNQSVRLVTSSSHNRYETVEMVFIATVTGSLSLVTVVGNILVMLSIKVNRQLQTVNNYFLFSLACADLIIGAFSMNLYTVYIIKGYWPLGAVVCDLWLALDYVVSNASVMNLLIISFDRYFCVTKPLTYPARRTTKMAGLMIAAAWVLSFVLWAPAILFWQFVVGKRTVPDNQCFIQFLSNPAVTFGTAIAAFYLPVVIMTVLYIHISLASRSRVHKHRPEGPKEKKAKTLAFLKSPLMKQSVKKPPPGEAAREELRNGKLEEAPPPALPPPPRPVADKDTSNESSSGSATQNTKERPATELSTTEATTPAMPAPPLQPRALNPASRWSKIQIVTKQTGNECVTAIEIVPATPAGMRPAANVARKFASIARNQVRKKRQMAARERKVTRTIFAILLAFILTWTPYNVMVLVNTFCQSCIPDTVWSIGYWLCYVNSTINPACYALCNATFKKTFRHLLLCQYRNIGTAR
ASSAY METHOD TEXT: human FLIPR-based M4 PAM assay (calcium mobilization, CHO-K1 cells with human M4 receptor and Gαqi5)
CONDITION DESCRIPTION: inflection point (IP) of dose response curve, acetylcholine added at 20% of maximum response, read-out: M4 FLIPPR Hu IP
Please note pEC50 is a logarithmic value: minus log10 of concentration in mol/L. Answer with that number alone.

*Q* Form field: reported pEC50 of CC(C)(Cc1ncc(-c2ccc(C#N)nc2-c2ccc3cccnc3c2)o1)C(F)(F)F [Example 23]
*A* 6.98

*Q* Also, CC(C)Cc1ncc(-c2ccc(C#N)nc2-c2ccc3cccnc3c2)o1 [Example 61] please.
*A* 7.21

*Q* Also, COc1cc2ccc(-c3nc(C(F)F)ccc3-c3cnc(CC(C)(C)C)o3)cc2nn1 [Example 14] please.
*A* 6.76

*Q* Also, CC(C)(C)Cc1ncc(-c2cc(F)cnc2-c2ccn3ccnc3c2)o1 [Example 27] please.
*A* 6.95
